Measured TGI values are reported for all entries that follow.
System: IGROV1 ovarian
Experiment Description: NCI tumour cell line growth inhibition, 48 h

[[record]]
compound = "COC(=O)/C=C(\\C)CC/C=C(\\C)CCC(O)C(C)(C)O (stereo not drawn)"
property_name = "TGI"
assay_result = "> 100 µM"


Find the recorded TGI belonging to `OCc1ccc(N(Cc2ccc(F)cc2)CC2CCC2)cc1Cl` and report it.
4.05 µM

Same read-out for `CCc1ccc2c(c1)C(=O)c1c-2n(CCCN)c(=O)c2cc([N+](=O)[O-])ccc12` ?
2.56 µM

Same read-out for `COc1cc(Cn2c(SCC(=O)Nc3ccc(Cl)cc3)nc3ccccc3c2=O)cc(OC)c1OC` ?
55.8 µM

Same read-out for C=C1C(=O)C2(C)OC2(C)C1C(=O)O (stereo not drawn) ?
> 100 µM

Same read-out for `COc1ccc2c(c1)CCc1c-2n(CCN2CCOCC2)c2ccc(OC)cc12` ?
> 100 µM

Same read-out for `COc1ccc(/C=C2\N=C(c3ccccc3)OC2=O)cc1OC(C)=O` ?
> 100 µM

Same read-out for `Cc1cc(-c2cscn2)c(O)c([N+](=O)[O-])c1` ?
> 100 µM
